biological target: human AChE (hAChE) (Homo sapiens); construct: made in house; assay: hAChE inhibition, modified Ellman's method; format: biochemical; conditions: read-out: % of AChE inhibition
Sequence (P22303 32-614): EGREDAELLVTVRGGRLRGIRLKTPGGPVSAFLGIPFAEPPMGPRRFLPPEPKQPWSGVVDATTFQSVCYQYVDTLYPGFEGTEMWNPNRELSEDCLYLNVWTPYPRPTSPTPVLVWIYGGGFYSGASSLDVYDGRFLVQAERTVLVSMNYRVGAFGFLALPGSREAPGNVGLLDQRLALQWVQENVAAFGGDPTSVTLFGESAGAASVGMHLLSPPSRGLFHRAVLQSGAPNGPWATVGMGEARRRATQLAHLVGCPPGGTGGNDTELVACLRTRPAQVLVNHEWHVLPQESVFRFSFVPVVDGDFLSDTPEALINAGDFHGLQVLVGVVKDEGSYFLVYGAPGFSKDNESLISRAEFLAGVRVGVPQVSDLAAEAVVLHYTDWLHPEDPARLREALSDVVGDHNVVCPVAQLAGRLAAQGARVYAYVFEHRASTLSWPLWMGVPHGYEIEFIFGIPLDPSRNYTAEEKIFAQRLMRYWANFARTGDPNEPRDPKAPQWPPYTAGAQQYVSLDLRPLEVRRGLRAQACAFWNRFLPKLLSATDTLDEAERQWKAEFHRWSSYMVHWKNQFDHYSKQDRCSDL
Outcome label depends on inhibition at 1 µM relative to 5%: at/above gives Fulfilled, below gives Not fulfilled.

smiles.str	assigned.label
C#CCN(C)c1nc(NCC)c2ccccc2n1	Not fulfilled
C#CCN(C)c1nc(NC)c2ccc(Cl)cc2n1	Fulfilled
C#CCN(C)c1nc(NC2CCCCC2)c2ccccc2n1	Not fulfilled
C#CCN(C)c1nc(N)c2ccc(Cl)cc2n1	Fulfilled
C#CCN(C)c1nc(NCCCC)c2ccc(Cl)cc2n1	Fulfilled
C#CCN(C)c1nc(NCCCC)c2ccccc2n1	Not fulfilled
